- Tested on: KM12
- assay_details: NCI tumour cell line growth inhibition, 48 h
Active and inactive are the calls of the source. Cut-off read from the data, not from the text of the source: active = GI50 up to about 1.1 µM and inactive = higher.
readout_type: GI50

Ask: Please look at this compound and report its GI50: `CSc1cnn(CCC#N)c(=O)n1`
Reply: > 100 µM (inactive)

Ask: Please look at this compound and report its GI50: O=S(=O)(c1ccccc1)n1c(C(O)c2ccncc2)cc2ccccc21 (stereo unspecified)
Reply: 57.1 µM (inactive)

Ask: Please look at this compound and report its GI50: `N#CCCN(CCC#N)c1ccc(C(=N/c2ccc(Cl)cc2)/N=N/c2ccc(Cl)cc2)cc1`
Reply: 13.6 µM (inactive)

Ask: Please look at this compound and report its GI50: `O=C(Nc1ccccc1)N(CCN(Cc1ccccc1)C(=O)Nc1ccccc1)CCN(Nc1ccccc1)C(=O)Nc1ccccc1`
Reply: > 100 µM (inactive)

Ask: Please look at this compound and report its GI50: `CN(C)CCC[N+]1=Nc2cccc3cccc(c23)N1`
Reply: > 100 µM (inactive)

Ask: Please look at this compound and report its GI50: O=C1C=C2CCCC2C(C(=O)O)(C(=O)O)C1 (stereo unspecified)
Reply: > 100 µM (inactive)

Ask: Please look at this compound and report its GI50: `O=C(CP(=O)(c1ccccc1)c1ccccc1)c1cccc(C(=O)CP(=O)(c2ccccc2)c2ccccc2)c1`
Reply: > 100 µM (inactive)

Ask: Please look at this compound and report its GI50: `N=c1c2ccccc2sc2nc3ccccc3n12`
Reply: > 100 µM (inactive)

Ask: Please look at this compound and report its GI50: `Cc1ccccc1Cn1nc2ccccc2cc1=O`
Reply: > 100 µM (inactive)

Ask: Please look at this compound and report its GI50: O=C(O)c1ccccc1CN1CCCC(C(=O)O)C1 (stereo unspecified)
Reply: > 100 µM (inactive)

Ask: Please look at this compound and report its GI50: `O=[N+]([O-])c1c(F)c(F)c2c(c1F)Nc1ccccc1S2`
Reply: 4.49 µM (inactive)

----------
Give measured GI50 for each item. Keep answers brief.
- Test system: COLO 205
- assay_details: NCI tumour cell line growth inhibition, 48 h
Calls of active or inactive are those of the source. Rule as the data show it: active = GI50 up to about 1.1 µM and inactive = higher.

Ask: Please look at this compound and report its GI50: `Cc1cc(C)c2c(=N)c3ccccc3n(CCCCCCCCn3c4ccccc4c(=N)c4c(C)cc(C)nc43)c2n1`
Reply: 1.47 µM (inactive)

Ask: Please look at this compound and report its GI50: `Nc1ccc(Cc2c(N)[nH]c(=O)[nH]c2=O)cc1`
Reply: > 100 µM (inactive)

Ask: Please look at this compound and report its GI50: O=c1[nH]c(=O)n(C2CC(O)C(CO)O2)cc1C1=NC1 (stereo not given)
Reply: > 100 µM (inactive)

Ask: Please look at this compound and report its GI50: C=CCCC1(CC(Sc2ccccc2)P(=O)(c2ccccc2)c2ccccc2)OCCO1 (stereo not given)
Reply: > 10 µM (inactive)

Ask: Please look at this compound and report its GI50: `Cc1nnc2n1N=C(CC(=O)c1ccc(O)cc1O)CN2N`
Reply: 19.2 µM (inactive)

Ask: Please look at this compound and report its GI50: `CCOC(=O)c1c(C)cc(=O)n2c1[nH]c1ccccc12`
Reply: > 100 µM (inactive)

Ask: Please look at this compound and report its GI50: COC(=O)C1=C(OC)C(=P2(c3ccccc3)CC(c3ccccc3)=C2c2ccccc2)C(C(=O)OC)=C1C(=O)OC (stereo not given)
Reply: 18.8 µM (inactive)

Ask: Please look at this compound and report its GI50: CC(SC(=S)Nc1cccc(F)c1)C(=O)O (stereo not given)
Reply: > 10 µM (inactive)

Ask: Please look at this compound and report its GI50: `COC(=O)c1c(O)ccc2c1c1c(n2Cc2ccc(OC)cc2)C(=O)c2ccccc2C1=O`
Reply: 1.84 µM (inactive)

Ask: Please look at this compound and report its GI50: CCOC(=O)CCC(NC(=O)Cc1ccc(Oc2nc3ccccc3nc2-c2ccccc2)cc1)C(=O)OCC (stereo not given)
Reply: > 100 µM (inactive)

----------
- Test system: UACC-257
- assay_details: NCI tumour cell line growth inhibition, 48 h
Calls of active or inactive are those of the source. Cut-off read from the data, not from the text of the source: active = GI50 up to about 1.1 µM and inactive = higher. Where a SMILES comes first, the peptide text is derived from it. The star is where a group is joined. Boc = CC(C)(C)OC(=O)*; OBn = c1ccc(CO*)cc1
Give measured GI50 for each item. Keep answers brief.

Ask: # return GI50 for O=c1[nH]c(=O)n(C2CC(O)C(CO)O2)cc1C1=NC1 (stereo not given) , test system: UACC-257
Reply: > 100 µM (inactive)

Ask: # return GI50 for `O=c1oc2ccccc2n1CCCn1c(=O)oc2ccccc21` , test system: UACC-257
Reply: > 100 µM (inactive)

Ask: # return GI50 for `CCCCCCCCCCCC(=O)CC(=O)c1c(O)cccc1O` , test system: UACC-257
Reply: 17.5 µM (inactive)

Ask: # return GI50 for CNC1=Nc2ccccc2C(=O)N2CSCC12 (stereo not given) , test system: UACC-257
Reply: > 100 µM (inactive)

Ask: # return GI50 for O=C1C=C2CCCC2C(C(=O)O)(C(=O)O)C1 (stereo not given) , test system: UACC-257
Reply: > 100 µM (inactive)

Ask: # return GI50 for `COc1cc2oc(=O)cc(C)c2c(OC)c1O` , test system: UACC-257
Reply: > 100 µM (inactive)

Ask: # return GI50 for CCCC(=O)C(CC)/C(CCC(=O)N(Cc1ccccc1)Cc1ccccc1)=N/NC(=O)C[N+](C)(C)C (stereo not given) , test system: UACC-257
Reply: > 100 µM (inactive)

Ask: # return GI50 for `Cc1ccc(C2=NO[C@@H]3C(=O)N(c4ccc(Cc5ccc(N6C(=O)[C@H]7C(c8ccc(C)cc8)=NO[C@H]7C6=O)cc5)cc4)C(=O)[C@H]23)cc1` , test system: UACC-257
Reply: 38.7 µM (inactive)

Ask: # return GI50 for NC(=O)NC(CC(=O)O)C(=O)O (stereo not given) , test system: UACC-257
Reply: 93.3 µM (inactive)

Ask: # return GI50 for CC(C)CC(NC(=O)OC(C)(C)C)C(=O)N1CCCC1C(=O)OCc1ccccc1 (stereo not drawn) (Boc-Leu-Pro-OBn; configuration not given here) , test system: UACC-257
Reply: > 100 µM (inactive)

----------
- Test system: HCT-116
- assay_details: NCI tumour cell line growth inhibition, 48 h
The source made the active and inactive calls. No stated cut-off is given here; in the data, active = GI50 up to about 1.1 µM and inactive = higher.
Outcome (select one): active, inactive

Ask: Which outcome did this test record for the compound `[O-]c1c2c(nn1-c1ccccc1)c1ccccc1c[n+]2Cc1ccccc1` ?
Reply: inactive

Ask: Which outcome did this test record for the compound CCCCCCCCCCCCCCCCCCNc1ccn(C2OC(COP(=O)(O)OCC3OC(n4cc(F)c(NCCCCCCCCCCCCCCCCCC)nc4=O)CC3O)C(O)C2O)c(=O)n1 (stereo not drawn) ?
Reply: inactive

Ask: Which outcome did this test record for the compound `Cc1cc(C)c2c(=N)c3ccccc3n(CCCCCCCCn3c4ccccc4c(=N)c4c(C)cc(C)nc43)c2n1` ?
Reply: active

Ask: Which outcome did this test record for the compound CCCC(=O)C(CC)/C(CCC(=O)N(Cc1ccccc1)Cc1ccccc1)=N/NC(=O)C[N+](C)(C)C (stereo not drawn) ?
Reply: inactive

Ask: Which outcome did this test record for the compound COC(=O)C(Cc1ccccc1)NC(=O)CSc1nnc(COc2ccc(Cl)cc2)n1-c1ccccc1 (stereo not drawn) ?
Reply: inactive

Ask: Which outcome did this test record for the compound `COC1=CC(=O)C2=C(C1=O)[C@H]1CC[C@]3(C)C(=O)CC[C@H]3[C@@H]1CC2` ?
Reply: inactive

Ask: Which outcome did this test record for the compound `Cc1cc(NCCCCCCNc2cc(C)nc3cc(N(C)C)ccc23)c2ccc(N(C)C)cc2n1` ?
Reply: inactive

Ask: Which outcome did this test record for the compound `C/C(=N\NC(=S)N1CCCCC1)c1cccc(C)n1` ?
Reply: active

----------
- Test system: OVCAR-5
- assay_details: NCI tumour cell line growth inhibition, 48 h
Activity calls are given as the source filed them. Cut-off read from the data, not from the text of the source: active = GI50 up to about 1.1 µM and inactive = higher.
readout_type: GI50

Ask: Please look at this molecule and report its GI50: COC(=O)C1=C(C(=O)Nc2cccnc2Cl)N(c2ccc(OC)cc2[N+](=O)[O-])C(c2ccc(C)cc2)=CC1c1ccc(OC)cc1OC (centres undefined)
Reply: 29 µM (inactive)

Ask: Please look at this molecule and report its GI50: `Cc1ccc(C(=O)N/N=C(\N=N\c2ccc(C(=O)O)cc2)c2ccc(N(CCC#N)CCC#N)cc2C)cc1`
Reply: > 100 µM (inactive)

Ask: Please look at this molecule and report its GI50: CN(C)C(=S)S [SODIUM DIMETHYLCARBAMODITHIOATE]
Reply: > 100 µM (inactive)

Ask: Please look at this molecule and report its GI50: O=c1[nH]c2ccccc2n1C1CCN(CCCC(c2ccc(F)cc2)c2ccc(F)cc2)CC1 [PIMOZIDE]
Reply: 8 µM (inactive)

Ask: Please look at this molecule and report its GI50: `O=C1Cc2c(-c3ccccc3)cc(-c3ccc4ccccc4c3)nc2-c2ccccc2N1`
Reply: 24.7 µM (inactive)

Ask: Please look at this molecule and report its GI50: `N#Cc1c(Cl)c2ccccc2n2c1nc1ccccc12`
Reply: > 100 µM (inactive)

Ask: Please look at this molecule and report its GI50: `COc1cccc(-c2cc(O)c3cc(NC(C)=O)ccc3n2)c1`
Reply: 59.4 µM (inactive)

Ask: Please look at this molecule and report its GI50: `O=C(Nc1nc2ncn(CCO)c2c(=S)[nH]1)c1ccccc1`
Reply: > 100 µM (inactive)

Ask: Please look at this molecule and report its GI50: COC(=O)C(NC(=O)c1ccccc1)C(c1c(O)cc(O)cc1O)P(=O)(OC)OC (centres undefined)
Reply: > 100 µM (inactive)
